# Tested on: MS2 coat protein
# test.method.notes: apparent KD of MS2 coat protein; designed switch direction (-1 OFF switch, 1 ON switch): -1; higher = weaker reporter binding
# protocol.conditions: input ligand: FMN 200 uM
Assign class by apparent KD of MS2 coat protein: not lower than 70 nM means t; lower than 70 nM means f.

Completed entries (count: 4):
{"columns": ["chain.sequence", "group.label"],
 "data": [
  ["UGUGUGAGACAGGAUAUGCCGGUUGUAUUACUGGUAGAAGGGUCUACAUGAGGAUCACCCAUGUGGCCGGCCGG [Ex6 #82] (Eterna round: R97, puzzle: Exclusion 6)", "t"],
  ["GUGGGCUUUUAGGUUCUUGACAUGAGGAUCACCCAUGUGCUUGUCUUGCUGGCUGGCGGGUCGUCGGUCGGGCUUGU (Eterna round: R97, puzzle: Sensor, turn-off variant 1)", "t"],
  ["AACUUCUGAGGAUAUACUUAGAUUUACAUGAGGAUCACCCAUGUUCCUCUUUGUAUAAAUGUAGAAGGCAGAAGAA [JL-ex5-4.38 Malcolm mod] (Eterna round: R97, puzzle: Exclusion 5)", "t"],
  ["GCACGGAUCGUAGGAUAUCAUUGCGAUUAGCUAUGAGAAGGACGACAUGAGGAUCACCCAUGUCCUCUAAUUAGCCUUCCGUGC [Eli exng1 - 017] (Eterna round: R96, puzzle: Exclusion NG 1)", "f"]
]}

In: I'd appreciate it if you could say whether GAAAAUGUGGAGGAUAUCGACUUCGAAAGAAGUCGAGAAGGCCACACAUGAGGAUCACCCAUGUGAUGCCAAUA [Omei Ex6 H9] (Eterna round: R97, puzzle: Exclusion 6) has apparent KD of MS2 coat protein at least equal to 70 nM.
Out: t

---

# Tested on: MS2 coat protein
# test.method.notes: apparent KD of MS2 coat protein; designed switch direction (-1 OFF switch, 1 ON switch): -1; higher = weaker reporter binding
# protocol.conditions: input ligand: FMN 200 uM
The entries below are paired with their reported apparent KD of MS2 coat protein.
// return numeric value only (unit: nM, not printed)

Some solved cases for reference:
{"columns": ["chain.sequence", "target.under.test", "measurement.units", "apparent KD of MS2 coat protein"],
 "data": [
  ["AGCGAGGCAGGAUAUACAUGAGGAUCACCCAUGUACUUGUAUGGCGUGGAACAUCGUGGUAGAAGGGCCGUGCU [EX3 #81] (Eterna round: R97, puzzle: Exclusion 3)", "MS2 coat protein", "nM", 101],
  ["UGUGUCCGGGAGGAUAUCAGAACGCUAGUGGUCUGAGAAGGCCUAACAUGAGGAUCACCCAUGUGAUUAUUUAU [Eternabot (L2) Solution 51] (Eterna round: R97, puzzle: Exclusion 6)", "MS2 coat protein", "nM", 93.4]
]}

Turning now to a further record.
In: Would you kindly share the measured apparent KD of MS2 coat protein for UCGGGUAGAGGAUAUACAUAGAAAUAGAUUCAUGUAAAACUACAUGAGGAUCACCCAUGUAGAAGGCUAUCCGU [Mat - Exclusion 2 - JL Mod - D56] (Eterna round: R97, puzzle: Exclusion 2) ?
Out: 164

---

# Tested on: MS2 coat protein
# test.method.notes: apparent KD of MS2 coat protein; designed switch direction (-1 OFF switch, 1 ON switch): -1; higher = weaker reporter binding
# protocol.conditions: input ligand: FMN 200 uM
test.readout: apparent KD of MS2 coat protein (nM)
Report the figure in nM without appending any unit label.

Use the examples below as a reference point.
{"columns": ["chain.sequence", "measurement.units", "apparent KD of MS2 coat protein"],
 "data": [
  ["ACCUCACAUGAGGAUCACCCAUGUCAGGAUAUCUGAUGUAGUCCCGUUCCGGACGCUGAGAGAAGGGACGUUGA [EX1 #39] (Eterna round: R97, puzzle: Exclusion 1)", "nM", 38.9],
  ["GGUGCUGGCGCGUCGGUGUUGGUGCAAUAAGCUUGUGAAACAUGAGGAUCACCCAUGUCCUCAUAAGCUCGUCUUAU [salish99_TOv2_r2_086] (Eterna round: R96, puzzle: Sensor v3, turn-off variant 2)", "nM", 13.7]
]}

In: Form: Entry = GUCAGCUCGUCAGGAUAUAUAUUAACAUGAGGAUCACCCAUGUAAGAUCAGCUUCGGCAGUUAAUAUAGAAGGGACGAGCUGAC [ENG2/14-B1] (Eterna round: R96, puzzle: Exclusion NG 2) | System = MS2 coat protein | apparent KD of MS2 coat protein = ____
Out: 181

In: Now the same for CCCAGACUAGGAUAUACAAGCCGUGGCGAGGUGGGCCUGGGACAUGAGGAUCACCCAUGUAGAAGGAGUAGGUC [Eternabot (Original) Solution 31] (Eterna round: R97, puzzle: Exclusion 2)
Out: 127

In: Try this sequence next: AUAAAACAUGAGGAUCACCCAUGUGAGGAUAUACGACUCCAACCUAACAGCUUGGACCGUAGAAGGCACAAGGG [Exclusion 1 (MOD3.2 Esqu)] (Eterna round: R97, puzzle: Exclusion 1)
Out: 137

---

# Test system: MS2 coat protein
# test.method.notes: apparent KD of MS2 coat protein, switch ON state; designed switch direction (-1 OFF switch, 1 ON switch): 1; higher = weaker reporter binding
# protocol.conditions: FMN input: 0 or 200 uM; Eterna round: R93 (includes R88 designs)
Respond with fulfilled for apparent KD of MS2 coat protein values of 0.02 µM and above, not fulfilled for values below.

In: API: above_or_equal(metric=apparent KD of MS2 coat protein, cutoff=0.02 µM) for item AUAUAUAUAAGGUAGGAUAUACUAAAGUAAACAUGAGGAUCACCCAUGUAAAGAAAGAAACUCAUGUAGAAGGACCAUAUAUAUAU [Ex 6 sub 1]
Out: fulfilled

In: Repeat for the following sequence: AACAAUCUAUCUGAGGAUAUCAUGUCAAAGACAUGAGGAUCACCCAUGUCCAGGAAAACUGGUCAUGAGAAGGCAGAUAGAUUGA [SS2: 1111]
Out: fulfilled

In: Another sequence to look at: AAAAUACAUGAGGAUCACCCAUGUGAAAAUAUGGGAGGAUAUACGAAAAAUAAAUAAAACGUAGAAGGCCUAAAAA [SS! 1 MT 2]
Out: fulfilled

---

# System: K4 kissing-loop RNA reporter;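 note: bound reporter read as fluorescence of individual clusters on recovered sequencing chips by microscopy, with normalized cluster intensities fitted with a binding model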
# test.method.notes: apparent KD of K4 kissing-loop reporter; higher = weaker reporter binding
# protocol.conditions: Eterna round: R107; input ligand: FMN 200 uM
test.readout: apparent KD of K4 kissing-loop reporter (nM)
Reply numerically in nM, unit not repeated.

{"columns": ["chain.sequence", "measurement.units", "apparent KD of K4 kissing-loop reporter"],
 "data": [
  ["GAUUCCCAAGCGGCCGCCACUUAUAGUGAUGUUAUAGGGACUGCGGAUCAGGACAAUCAUACAUAAAGGACCGGGCUAUUCUGAC [theeternabot_exclusion_KL_Trp_B_1]", "nM", 264],
  ["UGGCAAGUGAUGUUUGCGUUUCCGCAGGAUACCAGUCUGUCUUGAGACCCUUGGCAGCCUGGGUACAGUCCAAGCGGUCACACGA [theeternabot_exclusion_KL_Theo_A_38]", "nM", 371]
]}

--- query ---
In: For ACGCGCGCGAGUGAUGUUCGGAGCGGCUGGCAGGAUAUGUAGCAAUGCAGAAGGGUCGUGGCUGCUGGUAGGAAACUACUGGCAG [#2 Exclusion - FMN A Attempt #4 (HarryS)] , what is its reported apparent KD of K4 kissing-loop reporter?
Out: 252

---

# Test system: MS2 coat protein
# test.method.notes: apparent KD of MS2 coat protein, switch ON state; designed switch direction (-1 OFF switch, 1 ON switch): -1; higher = weaker reporter binding
# protocol.conditions: FMN input: 0 or 200 uM; Eterna round: R93 (includes R88 designs)
Class true: apparent KD of MS2 coat protein at least 40 nM. Class false: apparent KD of MS2 coat protein below 40 nM.

Some solved entries appear below for comparison.
{"columns": ["chain.sequence", "group.label"],
 "data": [
  ["AAAAAACAUGAGGAUCACCCAUGUAAGGAUAUGUGAAAAAAAAAAUAAAAAAAAAAAAACAGAAGGUACAAAAA [LROPPY Exclusion 1 - v02_deltaG=3.34]", "true"],
  ["AACAUACAUGAGGAUCACCCAUGUCAGGAUAUGCCGGGUUAGAGCCAACUGAAAAAACGUAGAAGGGACGAAAA [Bilbo Confounded 7 - Jieux - Exclusion 1]", "true"],
  ["AACAGUACAGGAUAUACAUGAGGAUCACCCAUGUGAGAGGAAUAAAACAAAAAUAAAAGUAGAAGGGUACUGGA [Ruby 45]", "false"],
  ["AAAAAACAUGAGGAUCACCCAUGUGAGGAUAUGCUAUGGAAAAUAAAAAUAAAACAUAGCAGAAGGCACACCAA [Denovo 16]", "false"]
]}

Now, please, on to the next sequence.
In: Can AAGAAGCUAGGAUAUACUAAAGAAAUGAAAAGAAAUAAAGAACAUGAGGAUCACCCAUGUAGAAGGAGCAAGAA [Djefare] be said to have apparent KD of MS2 coat protein at or above 40 nM?
Out: true
